# SYSTEM_NAME: Leucine aminopeptidase (Plasmodium falciparum 3D7, UniProt Q8IL11)
# Sequence (Q8IL11 whole entry): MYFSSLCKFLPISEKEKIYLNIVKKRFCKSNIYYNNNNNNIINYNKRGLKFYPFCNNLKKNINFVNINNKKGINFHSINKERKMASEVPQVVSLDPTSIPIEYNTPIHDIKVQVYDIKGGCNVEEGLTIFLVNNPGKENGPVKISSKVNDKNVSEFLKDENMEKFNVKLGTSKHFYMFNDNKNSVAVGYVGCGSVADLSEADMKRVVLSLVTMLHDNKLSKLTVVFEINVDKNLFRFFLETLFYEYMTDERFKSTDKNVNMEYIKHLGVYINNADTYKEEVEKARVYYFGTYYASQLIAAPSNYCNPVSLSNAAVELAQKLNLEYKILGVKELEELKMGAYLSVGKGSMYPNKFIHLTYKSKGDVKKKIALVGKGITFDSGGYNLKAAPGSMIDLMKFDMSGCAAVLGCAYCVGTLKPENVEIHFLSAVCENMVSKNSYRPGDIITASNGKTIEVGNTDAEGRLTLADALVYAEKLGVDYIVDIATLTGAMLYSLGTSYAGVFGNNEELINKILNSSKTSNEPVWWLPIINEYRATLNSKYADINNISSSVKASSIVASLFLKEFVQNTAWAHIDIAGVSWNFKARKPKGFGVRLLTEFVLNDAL
# ASSAY_DETAILS: P. falciparum M17LAP inhibitors, primary screen, biochemical, fluorogenic H-Leu-NHMec substrate, 1536-well (AID 1619)
# Assay type: functional
Activity calls are given as the source filed them.
MEASURED_METRIC: IC50

compound=CCc1nnc(NS(=O)(=O)c2ccc(NC(=O)COc3ccc4ccccc4c3)cc2)s1 measured_metric=IC50 reading="5.1 µM (active)"
compound=Cc1ccc(Nc2cnn(C34CC5CC(CC(CC(=O)O)(C5)C3)C4)c(=O)c2Cl)cc1 measured_metric=IC50 reading="44.1 µM (active)"
compound=O=C(O)CC12CC3CC(C1)CC(n1ncc(NCc4ccc(F)cc4)c(Cl)c1=O)(C3)C2 measured_metric=IC50 reading="54 µM (active)"
compound="O=C(Nc1cc(N2CCOCC2)ncn1)NC1(C(F)(F)F)Oc2ccc(Cl)cc2O1 (stereo not given)" measured_metric=IC50 reading="32.4 µM (active)"
compound=Cc1ccc(SCC2=NNC(=O)C2)cc1 measured_metric=IC50 reading="1.77 µM (active)"

---

# SYSTEM_NAME: Corticotropin-releasing factor receptor 2/Corticotropin-releasing factor-binding protein (Homo sapiens, UniProt P24387+Q13324)
# Sequence (Q13324 whole entry): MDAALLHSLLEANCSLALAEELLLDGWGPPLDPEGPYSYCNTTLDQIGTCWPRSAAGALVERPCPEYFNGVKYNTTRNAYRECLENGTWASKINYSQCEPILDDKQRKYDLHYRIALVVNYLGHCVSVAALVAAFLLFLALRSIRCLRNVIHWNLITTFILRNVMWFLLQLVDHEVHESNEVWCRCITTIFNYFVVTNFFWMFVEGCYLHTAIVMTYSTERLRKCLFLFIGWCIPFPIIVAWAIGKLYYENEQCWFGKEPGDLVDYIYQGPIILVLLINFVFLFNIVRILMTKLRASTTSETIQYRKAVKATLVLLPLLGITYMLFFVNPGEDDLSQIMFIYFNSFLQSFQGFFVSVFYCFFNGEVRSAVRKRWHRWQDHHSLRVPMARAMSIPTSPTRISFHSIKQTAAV
# Sequence (P24387 whole entry): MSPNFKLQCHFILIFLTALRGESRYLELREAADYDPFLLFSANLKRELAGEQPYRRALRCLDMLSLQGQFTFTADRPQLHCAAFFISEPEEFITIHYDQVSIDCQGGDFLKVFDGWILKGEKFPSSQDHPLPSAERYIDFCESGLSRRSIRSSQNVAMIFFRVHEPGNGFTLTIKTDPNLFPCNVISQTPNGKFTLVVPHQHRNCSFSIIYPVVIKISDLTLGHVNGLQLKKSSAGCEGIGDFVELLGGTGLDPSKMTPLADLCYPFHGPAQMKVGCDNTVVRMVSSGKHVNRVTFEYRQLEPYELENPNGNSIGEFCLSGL
# ASSAY_DETAILS: Dose Response confirmation of uHTS hits for small molecule antagonists of the CRF-binding protein and CRF-R2 receptor complex.
# Assay type: functional
# CONDITION_SUMMARY: read-out: IC50_Mean
The source made the active and inactive calls.
Outcome codes: active, inactive

molecule="Cc1ccc(C(=O)N(Cc2sccc2C)C2CCS(=O)(=O)C2)cc1 (stereo not drawn)" classification=inactive
molecule=O=C(NCCCCCCNC(=O)N1CCCCCC1)N1CCCCCC1 classification=inactive
molecule=CSc1ccccc1NC(=O)c1cc(CC(C)C)on1 classification=inactive
molecule=Cc1cc(=O)n2nc(N3CCC(C(=O)Nc4c(F)c(F)c(F)c(F)c4F)CC3)sc2n1 classification=inactive
molecule=COc1ccc(Cl)cc1NC(=O)CNc1ccccc1F classification=inactive
molecule=Cc1cc([N+](=O)[O-])c2ccccc2c1NS(=O)(=O)c1ccccc1 classification=inactive
molecule="CC(=O)NC(Cc1ccc(C)cc1)C(=O)NC1CCN(c2ncccc2[N+](=O)[O-])CC1 (stereo not drawn)" classification=active
molecule=COc1ccc(Cl)cc1C(=O)NNC(=O)COC(=O)c1cccs1 classification=inactive
molecule="CC1(Cc2ccc3c(c2)OCO3)NC(=O)NC1=O (stereo not drawn)" classification=inactive
molecule=O=C(CCCc1ccccc1)Nc1nncs1 classification=inactive
molecule=COc1cccc(CN2CCN(c3cccc(C(F)(F)F)c3)CC2)c1OC classification=inactive
molecule=O=C(COc1ccc(S(=O)(=O)NC2CCCCC2)cc1Cl)NCc1cccnc1 classification=inactive
molecule=CC(C)N(C(=O)[C@H]1C[C@H](CC(=O)NCc2ccco2)C(=O)N2CCc3c([nH]c4cc(CCC(=O)N(C)C)ccc34)[C@]12C)C(C)C classification=inactive

---

# SYSTEM_NAME: Sentrin-specific protease 7 (Homo sapiens, UniProt Q9BQF6);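 note: Luminescence-based dose-response confirmation of ultra-high-throughput screening hits, measuring inhibition of SENP7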
# Assay type: functional
Calls of active or inactive are those of the source.
Outcome codes: YES (active), NO (inactive)

substance_smiles=Cc1ccc(C(=O)Nc2ccc3c(c2)OCO3)cc1Cl classification=YES
substance_smiles=CCOC(=O)c1ccc(-c2ccc3c(c2)CCC3)nc1C classification=YES
substance_smiles=CCCCn1c(NC(=O)c2ccccc2Cl)c(C#N)c2nc3ccccc3nc21 classification=YES
substance_smiles=O=C(Nc1nnc(C(F)(F)F)s1)c1ccc(Br)s1 classification=YES
substance_smiles=CCOc1ccc(/C=C2\CCc3ccccc3C2=O)cc1 classification=YES
substance_smiles=CC(C)Oc1ccc2c(=O)c(-c3ccccc3)coc2c1 classification=YES
substance_smiles=CCc1ccc(OCC(=O)N/N=C2\CC(=O)c3ccccc32)cc1 classification=NO

---

# SYSTEM_NAME: E3 ubiquitin-protein ligase Mdm2 (Homo sapiens, UniProt Q00987)
# ASSAY_DETAILS: enhancers of MDM2-luciferase reporter signal, concentration-effect titration, project on inhibitors of MDM2 ubiquitin ligase, cellular assay, luminescent readout, 384-well plate format (AID 1394);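 note: MDM2 E3 inhibitors raise luminescence so EC50 is for signal enhancement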
# Format: functional
Activity calls are given as the source filed them.
MEASURED_METRIC: EC50

compound=C=C1C(=O)O[C@@H]2C[C@@H](C)[C@@H]3C=CC(=O)[C@@]3(C)[C@@H](O)[C@H]12 measured_metric=EC50 reading="0.42 µM (active)"
compound="CC1(C)CC2=Nc3nc(SCCN4CCOCC4)nc(O)c3C(c3cccs3)C2=C(O)C1 (centres undefined)" measured_metric=EC50 reading="47.7 µM (not active)"
compound=Clc1ccccc1/C=N/NC1=Nc2cccc3cccc1c23 measured_metric=EC50 reading="10.6 µM (not active)"
compound=Cc1cc(C)nc(S/C=C/C(=O)c2ccc(F)cc2)n1 measured_metric=EC50 reading="0.81 µM (active)"

---

A collection of molecules and their measured IC50
# SYSTEM_NAME: Voltage-gated N-type calcium channel alpha-1B subunit/Amyloid beta A4 precursor protein-binding family A member 1 (Homo sapiens, UniProt Q00975+Q02410)
# Sequence (Q00975 whole entry): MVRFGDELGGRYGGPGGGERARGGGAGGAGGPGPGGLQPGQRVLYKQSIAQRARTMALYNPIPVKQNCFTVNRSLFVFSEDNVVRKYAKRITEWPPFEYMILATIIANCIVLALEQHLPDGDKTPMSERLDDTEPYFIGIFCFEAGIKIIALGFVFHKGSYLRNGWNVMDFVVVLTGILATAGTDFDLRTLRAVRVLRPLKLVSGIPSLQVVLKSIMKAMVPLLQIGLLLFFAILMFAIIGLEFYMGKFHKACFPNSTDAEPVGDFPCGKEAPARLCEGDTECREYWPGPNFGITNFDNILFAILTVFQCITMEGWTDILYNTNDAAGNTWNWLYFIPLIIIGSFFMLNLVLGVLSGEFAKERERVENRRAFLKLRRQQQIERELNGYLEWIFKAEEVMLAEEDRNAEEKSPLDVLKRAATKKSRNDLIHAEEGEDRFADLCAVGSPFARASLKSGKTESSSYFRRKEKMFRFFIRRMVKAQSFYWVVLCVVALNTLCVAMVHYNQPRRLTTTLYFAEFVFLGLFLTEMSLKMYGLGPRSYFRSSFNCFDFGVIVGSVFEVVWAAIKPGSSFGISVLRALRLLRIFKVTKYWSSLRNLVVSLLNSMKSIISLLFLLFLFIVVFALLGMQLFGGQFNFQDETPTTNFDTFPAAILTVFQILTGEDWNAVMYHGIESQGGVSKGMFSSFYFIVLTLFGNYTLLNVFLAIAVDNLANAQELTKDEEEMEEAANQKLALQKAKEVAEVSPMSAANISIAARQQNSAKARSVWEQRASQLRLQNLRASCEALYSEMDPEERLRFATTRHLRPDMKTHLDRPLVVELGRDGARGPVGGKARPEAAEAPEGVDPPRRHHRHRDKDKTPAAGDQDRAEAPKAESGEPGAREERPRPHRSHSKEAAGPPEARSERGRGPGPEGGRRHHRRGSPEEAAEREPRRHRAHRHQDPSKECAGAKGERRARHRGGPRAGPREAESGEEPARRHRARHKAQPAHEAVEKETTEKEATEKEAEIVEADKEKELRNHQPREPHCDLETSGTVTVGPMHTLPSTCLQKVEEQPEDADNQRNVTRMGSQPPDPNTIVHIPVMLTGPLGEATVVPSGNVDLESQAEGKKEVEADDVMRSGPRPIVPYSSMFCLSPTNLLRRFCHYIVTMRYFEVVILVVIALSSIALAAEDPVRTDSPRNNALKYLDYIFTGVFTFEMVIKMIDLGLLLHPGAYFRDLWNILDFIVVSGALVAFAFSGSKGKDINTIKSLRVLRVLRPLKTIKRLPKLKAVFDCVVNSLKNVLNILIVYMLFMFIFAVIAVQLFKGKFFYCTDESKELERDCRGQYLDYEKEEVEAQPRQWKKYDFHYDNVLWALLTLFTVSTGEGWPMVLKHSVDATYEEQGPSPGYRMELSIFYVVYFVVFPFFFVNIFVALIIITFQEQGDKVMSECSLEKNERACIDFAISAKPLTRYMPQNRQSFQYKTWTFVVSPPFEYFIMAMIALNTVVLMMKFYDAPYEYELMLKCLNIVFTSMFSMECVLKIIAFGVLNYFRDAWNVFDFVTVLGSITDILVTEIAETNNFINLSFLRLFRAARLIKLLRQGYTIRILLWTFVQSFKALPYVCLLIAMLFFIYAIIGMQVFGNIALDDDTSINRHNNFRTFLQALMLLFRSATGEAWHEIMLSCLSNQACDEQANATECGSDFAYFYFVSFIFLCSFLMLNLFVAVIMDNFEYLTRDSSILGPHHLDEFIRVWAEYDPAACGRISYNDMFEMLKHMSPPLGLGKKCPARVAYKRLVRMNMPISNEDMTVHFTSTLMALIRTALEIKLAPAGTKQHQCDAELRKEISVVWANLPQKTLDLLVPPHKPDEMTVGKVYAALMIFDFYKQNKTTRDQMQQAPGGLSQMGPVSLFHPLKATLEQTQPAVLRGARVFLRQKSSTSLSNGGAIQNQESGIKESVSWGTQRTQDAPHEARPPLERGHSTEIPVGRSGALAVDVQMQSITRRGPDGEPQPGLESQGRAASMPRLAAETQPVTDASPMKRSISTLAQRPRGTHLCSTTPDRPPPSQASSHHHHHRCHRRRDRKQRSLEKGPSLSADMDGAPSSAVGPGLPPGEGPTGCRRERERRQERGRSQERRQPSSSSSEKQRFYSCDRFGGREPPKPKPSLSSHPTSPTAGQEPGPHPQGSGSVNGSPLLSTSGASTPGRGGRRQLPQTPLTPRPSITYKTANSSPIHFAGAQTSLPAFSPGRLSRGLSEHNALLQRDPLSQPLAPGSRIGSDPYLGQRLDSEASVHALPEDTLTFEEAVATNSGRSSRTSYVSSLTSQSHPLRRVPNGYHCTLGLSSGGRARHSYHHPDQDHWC
# Sequence (Q02410 whole entry): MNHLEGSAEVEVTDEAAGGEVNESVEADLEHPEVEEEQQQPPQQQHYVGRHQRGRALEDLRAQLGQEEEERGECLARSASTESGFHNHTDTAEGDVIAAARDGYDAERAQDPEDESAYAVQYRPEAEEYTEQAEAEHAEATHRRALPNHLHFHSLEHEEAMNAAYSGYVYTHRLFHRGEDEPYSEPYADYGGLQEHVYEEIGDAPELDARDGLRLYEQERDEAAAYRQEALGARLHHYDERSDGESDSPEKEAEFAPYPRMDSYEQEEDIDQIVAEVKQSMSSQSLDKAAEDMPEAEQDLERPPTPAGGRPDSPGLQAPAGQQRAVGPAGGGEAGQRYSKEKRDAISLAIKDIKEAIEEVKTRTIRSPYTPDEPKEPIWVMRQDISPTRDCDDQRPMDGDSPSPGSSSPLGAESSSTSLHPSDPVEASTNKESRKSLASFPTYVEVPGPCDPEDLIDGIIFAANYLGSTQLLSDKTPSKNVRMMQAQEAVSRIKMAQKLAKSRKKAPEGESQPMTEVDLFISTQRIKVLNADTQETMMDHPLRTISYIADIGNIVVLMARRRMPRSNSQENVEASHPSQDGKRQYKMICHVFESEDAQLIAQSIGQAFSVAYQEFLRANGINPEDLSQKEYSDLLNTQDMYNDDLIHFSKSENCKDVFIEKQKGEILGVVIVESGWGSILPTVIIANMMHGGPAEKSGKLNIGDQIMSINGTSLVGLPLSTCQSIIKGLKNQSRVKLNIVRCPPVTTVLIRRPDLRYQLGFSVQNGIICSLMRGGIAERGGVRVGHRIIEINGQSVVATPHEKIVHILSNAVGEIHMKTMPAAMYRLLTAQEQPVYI
# Type: protein assay
Calls of active or inactive are those of the source.
MEASURED_METRIC: IC50

molecule=CN(C)c1nc(-c2ccccc2)[n+](C)s1 measured_metric=IC50 reading="> 50 µM (inactive)"
molecule=COc1cc(N2C(=O)C=CC2=O)c(OC)cc1Cl measured_metric=IC50 reading="1.97 µM (active)"
molecule="COc1ccc(/N=C2\\S/C(=C\\c3ccc(OC(C)C(=O)O)c(OC)c3)C(=O)N2CCc2c[nH]c3ccccc23)cc1 (centres undefined)" measured_metric=IC50 reading="> 50 µM (inactive)"
molecule="CC(=O)Oc1ccc(N2C(=O)C3C(C2=O)C2(C)C=CC3(C)O2)cc1 (centres undefined)" measured_metric=IC50 reading="1.93 µM (active)"

---

A collection of compounds and their measured AC50
# SYSTEM_NAME: Cytochrome P450 2D6 (Homo sapiens, UniProt P10635);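 note: CYP2D6 member of a cytochrome P450 panel assay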
# Sequence (P10635 whole entry): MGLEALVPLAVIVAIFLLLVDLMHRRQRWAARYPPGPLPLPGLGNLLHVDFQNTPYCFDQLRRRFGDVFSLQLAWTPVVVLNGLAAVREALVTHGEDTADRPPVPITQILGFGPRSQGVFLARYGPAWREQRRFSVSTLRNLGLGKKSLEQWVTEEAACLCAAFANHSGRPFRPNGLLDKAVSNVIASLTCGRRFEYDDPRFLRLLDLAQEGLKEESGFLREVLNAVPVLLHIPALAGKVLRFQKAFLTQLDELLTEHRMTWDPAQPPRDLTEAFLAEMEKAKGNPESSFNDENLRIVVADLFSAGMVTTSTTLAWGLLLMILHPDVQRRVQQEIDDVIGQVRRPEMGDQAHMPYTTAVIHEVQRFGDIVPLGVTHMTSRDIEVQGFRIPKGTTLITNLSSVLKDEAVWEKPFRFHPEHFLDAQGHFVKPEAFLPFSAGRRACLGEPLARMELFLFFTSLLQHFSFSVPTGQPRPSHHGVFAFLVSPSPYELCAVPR
MEASURED_METRIC: AC50

compound=COc1ccccc1-c1nc(NCc2cccnc2)c2ccccc2n1 system_name="Cytochrome P450 2D6 (Homo sapiens, UniProt P10635)" reading="20 µM (inconclusive)"
compound=COc1ccc(/C=N/n2c(S)nnc2-c2cccs2)cc1 system_name="Cytochrome P450 2D6 (Homo sapiens, UniProt P10635)" reading="3.55 µM (inconclusive)"
compound="[H]/N=C(/N)N/C(=N/[H])NCCc1ccccc1 [PHENFORMIN]" system_name="Cytochrome P450 2D6 (Homo sapiens, UniProt P10635)" reading="10 µM (inconclusive)"
compound=COc1ccc(-n2c(=O)c(-c3cn(C)c4ccccc34)nc3cnc(N4CCNCC4)nc32)cc1 system_name="Cytochrome P450 2D6 (Homo sapiens, UniProt P10635)" reading="20 µM (inconclusive)"
compound=NS(=O)(=O)c1ccc(/N=N\c2cnc(O)c(O)c2)cc1 system_name="Cytochrome P450 2D6 (Homo sapiens, UniProt P10635)" reading="5.01 µM (inconclusive)"
compound=O=C(c1ccco1)N1CCC2(CC1)CN(c1ccccn1)C2 system_name="Cytochrome P450 2D6 (Homo sapiens, UniProt P10635)" reading="15.8 µM (inconclusive)"
compound=CC(C)NC[C@@H](O)COc1ccccc1-n1cccc1 system_name="Cytochrome P450 2D6 (Homo sapiens, UniProt P10635)" reading="31.6 µM (inconclusive)"
compound=N#Cc1ccc(CN2CCC3(CC2)CCN(C(=O)c2cc(C(F)(F)F)cc(C(F)(F)F)c2)CC3)cc1 system_name="Cytochrome P450 2D6 (Homo sapiens, UniProt P10635)" reading="39.8 µM (inconclusive)"
compound=O=C(NCCO)c1ccc(Cl)cc1 system_name="Cytochrome P450 2D6 (Homo sapiens, UniProt P10635)" reading="2 µM (inconclusive)"
compound=COc1ccccc1-c1cc(C(=O)Nc2cc(C)n(Cc3ccc(Cl)cc3)n2)no1 system_name="Cytochrome P450 2D6 (Homo sapiens, UniProt P10635)" reading="0.891 µM (inconclusive)"
compound=CC(=O)c1cccc(NS(=O)(=O)c2ccc(N/C=C\C(=O)c3ccc(F)cc3)cc2)c1 system_name="Cytochrome P450 2D6 (Homo sapiens, UniProt P10635)" reading="8.91 µM (inconclusive)"
compound="CCCC1(C)Nc2ccccc2-c2nc3ccccc3n21 (stereo not drawn)" system_name="Cytochrome P450 2D6 (Homo sapiens, UniProt P10635)" reading="22.4 µM (inconclusive)"
compound="CCCCCCOC(=O)C(C#N)c1nc2ccccc2nc1N1CCN(CC)CC1 (stereo not drawn)" system_name="Cytochrome P450 2D6 (Homo sapiens, UniProt P10635)" reading="25.1 µM (inconclusive)"

---

A collection of molecules and their measured IC50
# SYSTEM_NAME: Mitogen-activated protein kinase 10 (Homo sapiens, UniProt P53779)
# ASSAY_DETAILS: Dose response biochemical screening assay for inhibitors of c-Jun N-Terminal Kinase 3 (JNK3). [Related pubchem assays: 746 ]
MEASURED_METRIC: IC50

molecule="CCC1S/C(=C(\\C#N)C(N)=O)N(c2ccc(F)cc2)C1=O (stereo not given)" reading="32.6 µM (not active)"
molecule=COc1ccc(C(=O)NCc2cn3c(C)csc3n2)cc1OC reading="> 31 µM (not active)"
molecule=CC1=CC(=C2C(=O)c3ccccc3C2=O)C=C(C)N1Cc1ccco1 reading="22.9 µM (not active)"
molecule="CCOC(=O)C1=C(C)OC(N)=C(C#N)C1c1cc2ccccc2nc1N1CCCCC1 (stereo not given)" reading="> 93.1 µM (not active)"
molecule=c1ccc(-n2nc3ccc4c[nH]nc4c3n2)cc1 reading="43 µM (not active)"
